- Test system: Huh-7
- test-name: Inhibition of NS5A in Hepatitis C virus subtype 2b infected in human HuH7 cells assessed as reduction in viral replication by luciferase reporter gene assay
- Assay type: cell-based
Field 'label' (enum: class 1 / class 0). Set to class 1 when EC90 is strictly under 2 nM; else class 0.

compound: COC(=O)N[C@H](C(=O)N1CCC[C@H]1c1ncc(-c2cc(F)c3c(c2)OC(c2ccc4c(c2)OC(C)(C)C4)n2c-3cc3cc(-c4cnc([C@@H]5CCCN5C(=O)[C@@H](NC(=O)OC)C(C)C)[nH]4)ccc32)[nH]1)C(C)C.O=C(O)C(F)(F)F.O=C(O)C(F)(F)F (stereo partly drawn)
group: class 1
--
compound: COC(=O)N[C@H](C(=O)N1CCC[C@H]1c1ncc(-c2cc(F)c3c(c2)OC(c2ccc4ccccc4c2)n2c-3cc3cc(-c4cnc([C@@H]5CCCN5C(=O)[C@@H](NC(=O)OC)C(C)C)[nH]4)ccc32)[nH]1)C(C)C (stereo partly drawn)
group: class 1

Query string: Given the entry COC(=O)N[C@H](C(=O)N1CCC[C@H]1c1ncc(-c2cc(F)c3c(c2)OC(c2ccc4c(c2)OCO4)n2c-3cc3cc(-c4cnc([C@@H]5CCCN5C(=O)[C@@H](NC(=O)OC)C(C)C)[nH]4)ccc32)[nH]1)C(C)C (stereo partly drawn) , would its reported EC90 be below 2 nM?
Result string: class 0

Query string: Given the entry COC(=O)N[C@H](C(=O)N1CCC[C@H]1c1ncc(-c2cc(F)c3c(c2)OC(c2ccc4c(c2)COCC4)n2c-3cc3cc(-c4cnc([C@@H]5CCCN5C(=O)[C@@H](NC(=O)OC)C(C)C)[nH]4)ccc32)[nH]1)C(C)C (stereo partly drawn) , would its reported EC90 be below 2 nM?
Result string: class 0

Query string: Given the entry COC(=O)N[C@H](C(=O)N1CCC[C@H]1c1ncc(-c2cc(F)c3c(c2)OC(c2ccc4c(c2)OCCC4)n2c-3cc3cc(-c4cnc([C@@H]5CCCN5C(=O)[C@@H](NC(=O)OC)C(C)C)[nH]4)ccc32)[nH]1)C(C)C (stereo partly drawn) , would its reported EC90 be below 2 nM?
Result string: class 1

Query string: Given the entry COC(=O)N[C@H](C(=O)N1CCC[C@H]1c1ncc(-c2cc(F)c3c(c2)OC(c2ccc4c(c2)O[C@@H](C)CC4)n2c-3cc3cc(-c4cnc([C@@H]5CCCN5C(=O)[C@@H](NC(=O)OC)C(C)C)[nH]4)ccc32)[nH]1)C(C)C (stereo partly drawn) , would its reported EC90 be below 2 nM?
Result string: class 1

---

- Test system: Huh-7
- test-name: Inhibition of NS5A in Hepatitis C virus subtype 1a infected in human HuH7 cells assessed as reduction in viral replication by luciferase reporter gene assay
- Format: cell-based
quantity-name: EC90 (pM)
One number for each entry, in pM.

molecule: COC(=O)N[C@H](C(=O)N1CCC[C@H]1c1ncc(-c2cc(F)c3c(c2)OC(c2ccc4c(c2)CC2CC2(C)O4)n2c-3cc3cc(-c4cnc([C@@H]5CCCN5C(=O)[C@@H](NC(=O)OC)C(C)C)[nH]4)ccc32)[nH]1)C(C)C (mixture of isomers)
EC90 [pM]: 5
--
molecule: COC(=O)N[C@H](C(=O)N1CCC[C@H]1c1ncc(-c2cc(F)c3c(c2)OC(c2ccc4c(c2)OCC[C@H]4C)n2c-3cc3cc(-c4cnc([C@@H]5CCCN5C(=O)[C@@H](NC(=O)OC)C(C)C)[nH]4)ccc32)[nH]1)C(C)C (stereo partly specified)
EC90 [pM]: 4
--
molecule: COC(=O)N[C@H](C(=O)N1CCC[C@H]1c1ncc(-c2cc(F)c3c(c2)OC(c2ccc4c(c2)OC(F)(F)O4)n2c-3cc3cc(-c4cnc([C@@H]5CCCN5C(=O)[C@@H](NC(=O)OC)C(C)C)[nH]4)ccc32)[nH]1)C(C)C (stereo partly specified)
EC90 [pM]: 4

For every item in the list below, what is its measured EC90?
1. COC(=O)N[C@H](C(=O)N1CCC[C@H]1c1ncc(-c2cc(F)c3c(c2)OC(c2ccc4c(c2)COCC4)n2c-3cc3cc(-c4cnc([C@@H]5CCCN5C(=O)[C@@H](NC(=O)OC)C(C)C)[nH]4)ccc32)[nH]1)C(C)C (stereo partly specified)
2. COC(=O)N[C@H](C(=O)N1CCC[C@H]1c1ncc(-c2cc(F)c3c(c2)OC(c2ccc4c(c2)O[C@H](C)CC4)n2c-3cc3cc(-c4cnc([C@@H]5CCCN5C(=O)[C@@H](NC(=O)OC)C(C)C)[nH]4)ccc32)[nH]1)C(C)C (stereo partly specified)

Result string:
1: 3; 2: 3

---

- test-name: Tmax in male Wistar Han rat at 10 mg/kg, po administered as single dose post overnight fasting measured upto 24 hrs by LC-MS/MS analysis
- Type: ADME, organism-based
- condition-parameters: in vivo
quantity-name: Tmax
Output should be the measured figure followed by the unit it is expressed in.

Query string: Return reported Tmax; argument: COC(=O)N[C@H](C(=O)N1CCC[C@H]1c1ncc(-c2cc(F)c3c(c2)OC(c2ccc4c(c2)OCCC4)n2c-3cc3cc(-c4cnc([C@@H]5CCCN5C(=O)[C@@H](NC(=O)OC)C(C)C)[nH]4)ccc32)[nH]1)C(C)C.Cl.Cl (stereo partly specified)
Result string: 5 h

---

- System: Huh-7
- test-name: Inhibition of NS5A in Hepatitis C virus subtype 1a infected in human HuH7 cells assessed as reduction in viral replication by luciferase reporter gene assay
- Assay type: cell-based
quantity-name: EC90 (pM)
Answers are plain numbers, in pM.

Recorded results for 3 compounds are shown here.
compound: COC(=O)N[C@H](C(=O)N1CCC[C@H]1c1ncc(-c2cc(F)c3c(c2)OC(c2ccc4c(c2)OCO4)n2c-3cc3cc(-c4cnc([C@@H]5CCCN5C(=O)[C@@H](NC(=O)OC)C(C)C)[nH]4)ccc32)[nH]1)C(C)C (some centres undefined)
measured-on: Huh-7
unit-spec: pM
EC90: 8
--
compound: COC(=O)N[C@H](C(=O)N1CCC[C@H]1c1ncc(-c2cc(F)c3c(c2)OC(c2ccc4c(c2)OCC[C@@H]4C)n2c-3cc3cc(-c4cnc([C@@H]5CCCN5C(=O)[C@@H](NC(=O)OC)C(C)C)[nH]4)ccc32)[nH]1)C(C)C (some centres undefined)
measured-on: Huh-7
unit-spec: pM
EC90: 4
--
compound: COC(=O)N[C@H](C(=O)N1CCC[C@H]1c1ncc(-c2cc(F)c3c(c2)OC(c2ccc4c(c2)CC[C@H](C)O4)n2c-3cc3cc(-c4cnc([C@@H]5CCCN5C(=O)[C@@H](NC(=O)OC)C(C)C)[nH]4)ccc32)[nH]1)C(C)C (some centres undefined)
measured-on: Huh-7
unit-spec: pM
EC90: 4

Query string: Return reported EC90; argument: COC(=O)N[C@H](C(=O)N1CCC[C@H]1c1ncc(-c2cc(F)c3c(c2)OC(c2ccc4c(c2)CCCO4)n2c-3cc3cc(-c4cnc([C@@H]5CCCN5C(=O)[C@@H](NC(=O)OC)C(C)C)[nH]4)ccc32)[nH]1)C(C)C (some centres undefined)
Result string: 3

---

- test-name: AUC in male Wistar Han rat at 100 mg/kg, po administered as single dose post overnight fasting measured upto 24 hrs by LC-MS/MS analysis
- Type: ADME, organism-based
- Parameters: route oral, dose 100 mg/kg, time <=24
- condition-parameters: in vivo
quantity-name: AUC at 24 h

Query string: Return reported AUC at 24 h; argument: COC(=O)N[C@H](C(=O)N1CCC[C@H]1c1ncc(-c2cc(F)c3c(c2)OC(c2ccc4c(c2)OCCC4)n2c-3cc3cc(-c4cnc([C@@H]5CCCN5C(=O)[C@@H](NC(=O)OC)C(C)C)[nH]4)ccc32)[nH]1)C(C)C.Cl.Cl (stereo partly specified)
Result string: 5.9 µM·h

---

- test-name: Clearance in Beagle dog at 1 mg/kg, iv administered post overnight fasting measured upto 24 hrs by LC-MS/MS analysis
- Assay type: ADME, organism-based, Canis lupus familiaris
- condition-parameters: in vivo
quantity-name: clearance (mL/min/kg)
One number for each entry, in mL/min/kg.

Query string: Return reported clearance; argument: COC(=O)N[C@H](C(=O)N1CCC[C@H]1c1ncc(-c2cc(F)c3c(c2)OC(c2ccc4c(c2)OCCC4)n2c-3cc3cc(-c4cnc([C@@H]5CCCN5C(=O)[C@@H](NC(=O)OC)C(C)C)[nH]4)ccc32)[nH]1)C(C)C.Cl.Cl (stereo partly specified)
Result string: 2

---

- System: Nonstructural protein 5A (Hepatitis C virus), Q5L478 [Y93H]
- Sequence (Q5L478 entry or part of it Y93H): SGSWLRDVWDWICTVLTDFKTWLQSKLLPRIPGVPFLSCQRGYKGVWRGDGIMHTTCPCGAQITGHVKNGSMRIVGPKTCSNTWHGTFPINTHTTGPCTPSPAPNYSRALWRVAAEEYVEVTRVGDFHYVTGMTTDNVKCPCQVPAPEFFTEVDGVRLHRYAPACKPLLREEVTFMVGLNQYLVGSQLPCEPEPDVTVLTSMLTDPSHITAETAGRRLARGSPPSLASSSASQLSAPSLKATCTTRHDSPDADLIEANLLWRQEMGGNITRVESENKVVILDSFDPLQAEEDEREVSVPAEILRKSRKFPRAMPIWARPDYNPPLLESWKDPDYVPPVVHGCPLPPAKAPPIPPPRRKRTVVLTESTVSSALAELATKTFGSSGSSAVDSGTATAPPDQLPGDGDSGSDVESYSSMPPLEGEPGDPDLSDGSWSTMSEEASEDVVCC
- test-name: Inhibition of NS5A Y93H mutant in Hepatitis C virus subtype 1a infected in human HuH7 cells assessed as reduction in viral replication by luciferase reporter gene assay
- Format: cell-based
- condition-parameters: Huh-7
Please go through the items and note down their log10 EC90.
Reminder: these figures are log10 of reported EC90, in nM before transformation.

Recorded results for 2 compounds are shown here.
compound: COC(=O)N[C@H](C(=O)N1CCC[C@H]1c1ncc(-c2cc(F)c3c(c2)OC(c2ccc4c(c2)OC(F)(F)O4)n2c-3cc3cc(-c4cnc([C@@H]5CCCN5C(=O)[C@@H](NC(=O)OC)C(C)C)[nH]4)ccc32)[nH]1)C(C)C (stereo partly drawn)
recorded-value: 0.90
//
compound: COC(=O)N[C@H](C(=O)N1CCC[C@H]1c1ncc(-c2cc(F)c3c(c2)OC(c2ccc4c(c2)CCC(C)(C)O4)n2c-3cc3cc(-c4cnc([C@@H]5CCCN5C(=O)[C@@H](NC(=O)OC)C(C)C)[nH]4)ccc32)[nH]1)C(C)C (stereo partly drawn)
recorded-value: -0.05

For every item in the list below, what is its measured log10 EC90?
1. COC(=O)N[C@H](C(=O)N1CCC[C@H]1c1ncc(-c2cc(F)c3c(c2)OC(c2cccc4ccccc24)n2c-3cc3cc(-c4cnc([C@@H]5CCCN5C(=O)[C@@H](NC(=O)OC)C(C)C)[nH]4)ccc32)[nH]1)C(C)C (stereo partly drawn)
2. COC(=O)N[C@H](C(=O)N1CCC[C@H]1c1ncc(-c2cc(F)c3c(c2)OC(c2ccc4c(c2)OCO4)n2c-3cc3cc(-c4cnc([C@@H]5CCCN5C(=O)[C@@H](NC(=O)OC)C(C)C)[nH]4)ccc32)[nH]1)C(C)C (stereo partly drawn)
3. COC(=O)N[C@H](C(=O)N1CCC[C@H]1c1ncc(-c2cc(F)c3c(c2)OC(c2ccc4c(c2)COC4)n2c-3cc3cc(-c4cnc([C@@H]5CCCN5C(=O)[C@@H](NC(=O)OC)C(C)C)[nH]4)ccc32)[nH]1)C(C)C (stereo partly drawn)

Result string:
[1.51, 0.60, 0.70]

For every item in the list below, what is its measured log10 EC90?
1. COC(=O)N[C@H](C(=O)N1CCC[C@H]1c1ncc(-c2cc(F)c3c(c2)OC(c2ccc4c(c2)OCC[C@@H]4C)n2c-3cc3cc(-c4cnc([C@@H]5CCCN5C(=O)[C@@H](NC(=O)OC)C(C)C)[nH]4)ccc32)[nH]1)C(C)C (stereo partly drawn)
2. COC(=O)N[C@H](C(=O)N1CCC[C@H]1c1ncc(-c2cc(F)c3c(c2)OC(c2ccc4c(c2)CCCC4)n2c-3cc3cc(-c4cnc([C@@H]5CCCN5C(=O)[C@@H](NC(=O)OC)C(C)C)[nH]4)ccc32)[nH]1)C(C)C (stereo partly drawn)
3. COC(=O)N[C@H](C(=O)N1CCC[C@H]1c1ncc(-c2cc(F)c3c(c2)OC(c2ccc4c(c2)CCCO4)n2c-3cc3cc(-c4cnc([C@@H]5CCCN5C(=O)[C@@H](NC(=O)OC)C(C)C)[nH]4)ccc32)[nH]1)C(C)C (stereo partly drawn)
4. COC(=O)N[C@H](C(=O)N1CCC[C@H]1c1ncc(-c2cc(F)c3c(c2)OC(c2ccc4c(c2)CC2CC2(C)O4)n2c-3cc3cc(-c4cnc([C@@H]5CCCN5C(=O)[C@@H](NC(=O)OC)C(C)C)[nH]4)ccc32)[nH]1)C(C)C (mixture of isomers)
5. COC(=O)N[C@H](C(=O)N1CCC[C@H]1c1ncc(-c2cc(F)c3c(c2)OC(c2ccc4c(c2)OCC[C@H]4C)n2c-3cc3cc(-c4cnc([C@@H]5CCCN5C(=O)[C@@H](NC(=O)OC)C(C)C)[nH]4)ccc32)[nH]1)C(C)C (stereo partly drawn)
6. COC(=O)N[C@H](C(=O)N1CCC[C@H]1c1ncc(-c2cc(F)c3c(c2)OC(c2ccc4c(c2)OCC4)n2c-3cc3cc(-c4cnc([C@@H]5CCCN5C(=O)[C@@H](NC(=O)OC)C(C)C)[nH]4)ccc32)[nH]1)C(C)C (mixture of isomers)
7. COC(=O)N[C@H](C(=O)N1CCC[C@H]1c1ncc(-c2cc(F)c3c(c2)OC(c2ccc4c(c2)OCC(=O)N4)n2c-3cc3cc(-c4cnc([C@@H]5CCCN5C(=O)[C@@H](NC(=O)OC)C(C)C)[nH]4)ccc32)[nH]1)C(C)C (stereo partly drawn)

Result string:
1: -0.70; 2: 0.30; 3: 0.60; 4: 0.00; 5: -0.70; 6: 0.78; 7: 1.51

Query string: Return reported log10 EC90; argument: COC(=O)N[C@H](C(=O)N1CCC[C@H]1c1ncc(-c2cc(F)c3c(c2)OC(c2ccc4c(c2)CC[C@@H](C)O4)n2c-3cc3cc(-c4cnc([C@@H]5CCCN5C(=O)[C@@H](NC(=O)OC)C(C)C)[nH]4)ccc32)[nH]1)C(C)C (stereo partly drawn)
Result string: 0.30
